# protocol.text: Stability (placement) test of ADCs at 40° C. in dark for 14 days, DAR and polymer content
# Assay type: physicochemical
# condition.label: Day 14, 40° C. in dark
*1 amine or outer side, *2 acyl side, *3 side chain or, on linkers, in order; H or OH if unused. Where a SMILES comes first, the peptide text is derived from it. [ ]: non-standard residue; d: D form. The star is where a group is joined. X2 = CO[C@@H]([C@H]1CCCN1[*:1])[C@@H](C)C(=O)[*:2]; Propanoyl(3-maleimido) = O=C1C=CC(=O)N1CCC(=O)*; Dil = CC[C@H](C)[C@H](NC)[C@@H](CC(=O)O)OC; X1 = O=C(CN1CCOCCN([*:1])CCOCC1)[*:2]; PABC = O=C(OCc1ccc(N[*:1])cc1)[*:2]; X3 = C[C@@H](N*)[C@@H](O)c1ccccc1; NMeV = CN[C@H](C(=O)O)C(C)C
Parameter threshold = 4. Response is t when DAR meets or exceeds it, else f.

Query: # bool: DAR of `CCc1c2c(nc3ccc(O)cc13)-c1cc3c(c(=O)n1C2)CCC(=O)[C@@]3(CC)OC(=O)N(C)CCN(C)C(=O)COCNC(=O)CNC(=O)[C@H](Cc1ccccc1)NC(=O)CNC(=O)CNC(=O)CN1CCOCCN(C(=O)CCN2C(=O)C=CC2=O)CCOCC1` >= 4
Reply: t

Query: API: above_or_equal(metric=DAR, cutoff=4) for item `CC[C@@]1(O)C(=O)OCc2c1cc1n(c2=O)Cc2c-1nc1cc(F)c(C)c3c1c2[C@@H](NC(=O)COCNC(=O)CNC(=O)CNC(=O)CNC(=O)CN1CCOCCN(C(=O)CCN2C(=O)C=CC2=O)CCOCC1)CC3`
Reply: f

Query: Confirm if DAR reported for the compound `C=C1C[C@@H]2CC[C@@]34C[C@H]5OC6C(O[C@H]7CC[C@H](CC(=O)C[C@@H]8[C@@H](OC)[C@@H](C[C@H](O)CNC(=O)CNC(=O)[C@H](Cc9ccccc9)NC(=O)CNC(=O)CNC(=O)CN9CCOCCOCCN(C(=O)CCCC%10C(=O)C=CC%10=O)CCOCCOCC9)O[C@H]8C[C@H]8O[C@@H](CC[C@@H]1O2)C[C@@H](C)C8=C)O[C@@H]7[C@@H]6O3)[C@H]5O4` is 4 or above.
Reply: f

Query: Exam item: decide whether the reported DAR for `C=C1C[C@@H]2CC[C@@]34C[C@H]5OC6C(O[C@H]7CC[C@H](CC(=O)C[C@@H]8[C@@H](OC)[C@@H](C[C@H](O)CNC(=O)CNC(=O)[C@H](Cc9ccccc9)NC(=O)CNC(=O)CN9CCOCCOCCN(C(=O)CCCCCN%10C(=O)C=CC%10=O)CCOCCOCC9)O[C@H]8C[C@H]8O[C@@H](CC[C@@H]1O2)C[C@@H](C)C8=C)O[C@@H]7[C@@H]6O3)[C@H]5O4` is at least 4.
Reply: f

Query: # check: DAR of CC[C@H](C)[C@@H]([C@@H](CC(=O)N1CCC[C@@H]1[C@H](OC)[C@@H](C)C(=O)N[C@H](C)[C@@H](O)c1ccccc1)OC)N(C)C(=O)[C@@H](NC(=O)[C@H](C(C)C)N(C)C(=O)OCc1ccc(NC(=O)CNC(=O)[C@H](Cc2ccccc2)NC(=O)CNC(=O)CN2CCOCCN(C(=O)CCN3C(=O)C=CC3=O)CCOCC2)cc1)C(C)C [Example 86] ({Propanoyl(3-maleimido)}-[X1]GFG[PABC][NMeV]V[Dil][X2]-X3) is greater than or equal to 4
Reply: t
